tested on: NCI-H1651; assay: relative viability (nuclei count vs DMSO), 5 days (fraction); higher = more cells survive; settings: first compound 0.253 µM
endpoint.label: relative viability
Numbers only.

COc1nc(C)cnc1NS(=O)(=O)c1cccnc1-c1ccc(-c2nnco2)cc1 [Zibotentan] + N=C(N)NC(=N)NCCc1ccccc1 [Phenformin] (partner 250 µM): 0.264
COc1nc(C)cnc1NS(=O)(=O)c1cccnc1-c1ccc(-c2nnco2)cc1 [Zibotentan] + CS(=O)(=O)CCNCc1ccc(-c2ccc3ncnc(Nc4ccc(OCc5cccc(F)c5)c(Cl)c4)c3c2)o1 [Lapatinib] (partner 2 µM): 0.366

Turning to the following molecule.
Q: Output reported relative viability of the molecule O=c1cc(-c2cccc3c2Sc2ccccc2S3)oc(N2CCOCC2)c1 + COc1cc2c(Oc3ccc(NC(=O)C4(C(=O)Nc5ccc(F)cc5)CC4)cc3F)ccnc2cc1OCCCN1CCOCC1 [Foretinib] (partner 0.25 µM) on NCI-H1651.
A: 0.909

---

test system: HCC-366; test: relative viability (nuclei count vs DMSO), 5 days (fraction); higher = more cells survive; settings: first compound 8 µM
Returns: string. Value is t if measured relative viability is below 0.8, and f if it is greater than or equal to it.

O=c1cc(-c2cccc3c2Sc2ccccc2S3)oc(N2CCOCC2)c1 + Cc1cc(Nc2cc(N3CCN(C)CC3)nc(Sc3ccc(NC(=O)C4CC4)cc3)n2)n[nH]1 [Tozasertib] (partner 0.1 µM): t
O=c1cc(-c2cccc3c2Sc2ccccc2S3)oc(N2CCOCC2)c1 + O=C(CCCCCCC(=O)Nc1ccccc1)NO [Vorinostat] (partner 1 µM): t
O=c1cc(-c2cccc3c2Sc2ccccc2S3)oc(N2CCOCC2)c1 + COc1cccc2cc(-c3nc([C@H]4CC[C@H](C(=O)O)CC4)n4ncnc(N)c34)[nH]c12 [OSI-027] (partner 0.5 µM): t
O=c1cc(-c2cccc3c2Sc2ccccc2S3)oc(N2CCOCC2)c1 + CC1(C)CCC(c2ccc(Cl)cc2)=C(CN2CCN(c3ccc(C(=O)NS(=O)(=O)c4ccc(N[C@H](CCN5CCOCC5)CSc5ccccc5)c(S(=O)(=O)C(F)(F)F)c4)cc3)CC2)C1 [Navitoclax] (partner 0.5 µM): f

Q: A record lists O=c1cc(-c2cccc3c2Sc2ccccc2S3)oc(N2CCOCC2)c1 + CC(=O)c1c(C)c2cnc(Nc3ccc(N4CCNCC4)cn3)nc2n(C2CCCC2)c1=O [Palbociclib] (partner 0.5 µM) . Is its relative viability below 0.8?
A: t

---

system: LCLC-97TM1; assay: relative viability (nuclei count vs DMSO), 5 days (fraction); higher = more cells survive; details: first compound 0.3162 µM
endpoint.label: relative viability
Answers are plain numbers.

Reference set (3 entries):
O=c1cc(N2CCOCC2)oc2c(-c3cccc4c3sc3ccccc34)cccc12 + O=C(c1cc(Cc2n[nH]c(=O)c3ccccc23)ccc1F)N1CCN(C(=O)C2CC2)CC1 [Olaparib] (partner 8 µM): 0.269
O=c1cc(N2CCOCC2)oc2c(-c3cccc4c3sc3ccccc34)cccc12 + Nc1ncn([C@H]2C[C@H](O)[C@@H](CO)O2)c(=O)n1 [Decitabine] (partner 2 µM): 0.252
CCN(CC)CCCCNc1ncc2cc(-c3cc(OC)cc(OC)c3)c(NC(=O)NC(C)(C)C)nc2n1 + CC(=O)Nc1cccc(-n2c(=O)n(C3CC3)c(=O)c3c(Nc4ccc(I)cc4F)n(C)c(=O)c(C)c32)c1 [Trametinib] (partner 0.02 µM): 0.168

Q: Indicate the recorded relative viability value for this compound: CCN(CC)CCCCNc1ncc2cc(-c3cc(OC)cc(OC)c3)c(NC(=O)NC(C)(C)C)nc2n1 + Nc1ncn([C@H]2C[C@H](O)[C@@H](CO)O2)c(=O)n1 [Decitabine] (partner 2 µM)
A: 0.272

---

tested on: NCI-H1666; assay: relative viability (nuclei count vs DMSO), 5 days (fraction); higher = more cells survive; details: first compound 0.1 µM
endpoint.label: relative viability
One number for each entry.

Reference set (2 entries):
CCN(CC)CCCCNc1ncc2cc(-c3cc(OC)cc(OC)c3)c(NC(=O)NC(C)(C)C)nc2n1 + Cc1nc(NC(=O)N2CCC[C@H]2C(N)=O)sc1-c1ccnc(C(C)(C)C(F)(F)F)c1 [Alpelisib] (partner 2 µM): 1.02
CCN(CC)CCCCNc1ncc2cc(-c3cc(OC)cc(OC)c3)c(NC(=O)NC(C)(C)C)nc2n1 + Cc1nc(Nc2ncc(C(=O)Nc3c(C)cccc3Cl)s2)cc(N2CCN(CCO)CC2)n1 [Dasatinib] (partner 0.075 µM): 0.942

Lab note: each compound below needs its relative viability filled in.
1. CCN(CC)CCCCNc1ncc2cc(-c3cc(OC)cc(OC)c3)c(NC(=O)NC(C)(C)C)nc2n1 + CC(=O)c1c(C)c2cnc(Nc3ccc(N4CCNCC4)cn3)nc2n(C2CCCC2)c1=O [Palbociclib] (partner 0.5 µM)
2. CCN(CC)CCCCNc1ncc2cc(-c3cc(OC)cc(OC)c3)c(NC(=O)NC(C)(C)C)nc2n1 + CS(=O)(=O)N1CCN(Cc2cc3nc(-c4cccc5[nH]ncc45)nc(N4CCOCC4)c3s2)CC1 [Pictilisib] (partner 1 µM)

A:
1: 0.613; 2: 0.484

---

system: EBC-1; experiment: relative viability (nuclei count vs DMSO), 5 days (fraction); higher = more cells survive; details: first compound 20 µM
endpoint.label: relative viability
Answers are plain numbers.

Reference set (3 entries):
COCC1(CO)C(=O)C2CCN1CC2 (centres undefined) [PRIMA-1MET] + CC1(C)CCC(c2ccc(Cl)cc2)=C(CN2CCN(c3ccc(C(=O)NS(=O)(=O)c4ccc(N[C@H](CCN5CCOCC5)CSc5ccccc5)c(S(=O)(=O)C(F)(F)F)c4)cc3)CC2)C1 [Navitoclax] (partner 0.5 µM): 0.151
COCC1(CO)C(=O)C2CCN1CC2 (centres undefined) [PRIMA-1MET] + O=C(c1cc(Cc2n[nH]c(=O)c3ccccc23)ccc1F)N1CCN(C(=O)C2CC2)CC1 [Olaparib] (partner 8 µM): 0.7
COCC1(CO)C(=O)C2CCN1CC2 (centres undefined) [PRIMA-1MET] + Cc1nc(NC(=O)N2CCC[C@H]2C(N)=O)sc1-c1ccnc(C(C)(C)C(F)(F)F)c1 [Alpelisib] (partner 2 µM): 0.666

Turning to the following compound.
Q: Indicate the recorded relative viability value for this compound: COCC1(CO)C(=O)C2CCN1CC2 (centres undefined) [PRIMA-1MET] + CS(=O)(=O)CCNCc1ccc(-c2ccc3ncnc(Nc4ccc(OCc5cccc(F)c5)c(Cl)c4)c3c2)o1 [Lapatinib] (partner 2 µM)
A: 0.201

---

test system: NCI-H2009; test: relative viability (nuclei count vs DMSO), 5 days (fraction); higher = more cells survive; conditions: first compound 0.03162 µM
endpoint.label: relative viability
One number for each entry.

O=c1cc(N2CCOCC2)oc2c(-c3cccc4c3sc3ccccc34)cccc12 + CC1(C)CCC(c2ccc(Cl)cc2)=C(CN2CCN(c3ccc(C(=O)NS(=O)(=O)c4ccc(N[C@H](CCN5CCOCC5)CSc5ccccc5)c(S(=O)(=O)C(F)(F)F)c4)cc3)CC2)C1 [Navitoclax] (partner 0.5 µM): 1.16

Turning to the following compound.
Q: Indicate the recorded relative viability value for this compound: O=c1cc(N2CCOCC2)oc2c(-c3cccc4c3sc3ccccc34)cccc12 + C[C@]1(O)C[C@@H](c2nc(-c3ccc4ccc(-c5ccccc5)nc4c3)c3c(N)nccn32)C1 [Linsitinib] (partner 1 µM)
A: 1.17

---

tested on: COR-L23; assay: relative viability (nuclei count vs DMSO), 5 days (fraction); higher = more cells survive; conditions: first compound 2.53 µM
Returns: string. Value is true (1) if measured relative viability is below 0.7, and false (0) if it is greater than or equal to it.

COc1nc(C)cnc1NS(=O)(=O)c1cccnc1-c1ccc(-c2nnco2)cc1 [Zibotentan] + N=C(N)NC(=N)NCCc1ccccc1 [Phenformin] (partner 250 µM): true (1)

Q: A record lists O=c1cc(-c2cccc3c2Sc2ccccc2S3)oc(N2CCOCC2)c1 + C[C@@H](Oc1cc(-c2cnn(C3CCNCC3)c2)cnc1N)c1c(Cl)ccc(F)c1Cl [Crizotinib] (partner 1 µM) . Is its relative viability below 0.7?
A: false (0)

Q: A record lists O=c1cc(-c2cccc3c2Sc2ccccc2S3)oc(N2CCOCC2)c1 + Cc1cc(Nc2cc(N3CCN(C)CC3)nc(Sc3ccc(NC(=O)C4CC4)cc3)n2)n[nH]1 [Tozasertib] (partner 0.1 µM) . Is its relative viability below 0.7?
A: true (1)

Q: A record lists COc1nc(C)cnc1NS(=O)(=O)c1cccnc1-c1ccc(-c2nnco2)cc1 [Zibotentan] + O=C(c1cc(Cc2n[nH]c(=O)c3ccccc23)ccc1F)N1CCN(C(=O)C2CC2)CC1 [Olaparib] (partner 8 µM) . Is its relative viability below 0.7?
A: true (1)

Q: A record lists O=c1cc(-c2cccc3c2Sc2ccccc2S3)oc(N2CCOCC2)c1 + CS(=O)(=O)CCNCc1ccc(-c2ccc3ncnc(Nc4ccc(OCc5cccc(F)c5)c(Cl)c4)c3c2)o1 [Lapatinib] (partner 2 µM) . Is its relative viability below 0.7?
A: false (0)

Entry source: the supplement of paper PMC10307832
